Where these numbers come from: ChEMBL document CHEMBL5303573

Experiment: The drug is tested on Collinsella intestinalis strain: DSM13280 for biotransformation. The drug concentrations were measured before and after a 12-h incubation by liquid-chromatography-coupled mass spectrometry (LC–MS)
Settings: 2 µM
ENDPOINT LABEL: Bacterial Biotransformation

Query block: I am curious: what Bacterial Biotransformation value has been reported for CC(C)NCC(O)COc1ccc(COCCOC(C)C)cc1.CC(C)NCC(O)COc1ccc(COCCOC(C)C)cc1.O=C(O)/C=C/C(=O)O (stereo not drawn) [BISOPROLOL FUMARATE] ?
Result block: Compound NOT metabolized

Query block: Consider next the compound `C[C@]12CCC(=O)C=C1[C@@H]1C[C@@H]1[C@H]1[C@@H]3[C@@H]4C[C@@H]4[C@@]4(CCC(=O)O4)[C@@]3(C)CC[C@@H]12` in the same way.
Result block: Compound NOT metabolized

Query block: Consider next the compound `CNCC[C@H](Oc1cccc2ccccc12)c1cccs1` in the same way.
Result block: Compound NOT metabolized

* * *

Assay: The drug is tested on Parabacteroides merdae strain: ATCC43184 for biotransformation. The drug concentrations were measured before and after a 12-h incubation by liquid-chromatography-coupled mass spectrometry (LC–MS)
Conditions: 2 µM
ENDPOINT LABEL: Bacterial Biotransformation

In the examples that follow, each entry is paired with its recorded Bacterial Biotransformation.
Query block: I am curious: what Bacterial Biotransformation value has been reported for CC(=O)Nc1ccc(OC(C)=O)cc1 [DIACETAMATE] ?
Result block: Compound metabolized

Query block: Consider next the compound `COC(=O)Nc1nc2ccc(C(=O)c3ccccc3)cc2[nH]1` in the same way.
Result block: Compound NOT metabolized

Query block: Consider next the compound `CN(C)CCC=C1c2ccccc2C=Cc2ccccc21` in the same way.
Result block: Compound NOT metabolized

Query block: Consider next the compound `CCCCC1=NC2(CCCC2)C(=O)N1Cc1ccc(-c2ccccc2-c2nnn[nH]2)cc1` in the same way.
Result block: Compound metabolized

Query block: Consider next the compound `Fc1ccc([C@@H]2CCNC[C@H]2COc2ccc3c(c2)OCO3)cc1` in the same way.
Result block: Compound NOT metabolized

Shifting focus to the compound that follows.
Query block: I am curious: what Bacterial Biotransformation value has been reported for `COC1=CC(=O)C[C@@H](C)[C@]12Oc1c(Cl)c(OC)cc(OC)c1C2=O` ?
Result block: Compound metabolized

* * *

Experiment: The drug is tested on Bacteroides xylanisolvens strain: DSM18836 for biotransformation. The drug concentrations were measured before and after a 12-h incubation by liquid-chromatography-coupled mass spectrometry (LC–MS)
Settings: 2 µM
ENDPOINT LABEL: Bacterial Biotransformation

Query block: I am curious: what Bacterial Biotransformation value has been reported for COc1cc2nc(N3CCN(C(=O)C4CCCO4)CC3)nc(N)c2cc1OC (stereo not drawn) ?
Result block: Compound NOT metabolized

Query block: Consider next the molecule C[N+]12CCC(CC1)C(OC(=O)C(O)(c1ccccc1)c1ccccc1)C2.[Br-] (stereo not drawn) [CLIDINIUM BROMIDE] in the same way.
Result block: Compound NOT metabolized

Query block: Consider next the molecule CNCCC(Oc1ccc(C(F)(F)F)cc1)c1ccccc1 (stereo not drawn) in the same way.
Result block: Compound metabolized

Query block: Consider next the molecule `COc1ccc([C@@H]2Sc3ccccc3N(CCN(C)C)C(=O)[C@@H]2OC(C)=O)cc1` in the same way.
Result block: Compound metabolized

Others:
Query block: I am curious: what Bacterial Biotransformation value has been reported for CCN(CC)CC#CCOC(=O)C(O)(c1ccccc1)C1CCCCC1.Cl (stereo not drawn) [OXYBUTYNIN CHLORIDE] ?
Result block: Compound metabolized

Query block: Consider next the molecule CC(C)c1c(CN(C)C(C)Cc2ccccc2)n(C)n(-c2ccccc2)c1=O (stereo not drawn) in the same way.
Result block: Compound metabolized

Query block: Consider next the molecule CC(O)(CS(=O)(=O)c1ccc(F)cc1)C(=O)Nc1ccc(C#N)c(C(F)(F)F)c1 (stereo not drawn) [BICALUTAMIDE] in the same way.
Result block: Compound NOT metabolized

Query block: Consider next the molecule CN1[C@@H]2CC[C@H]1C[C@@H](OC(=O)C(CO)c1ccccc1)C2 (stereo partly drawn) in the same way.
Result block: Compound NOT metabolized

Query block: Consider next the molecule COc1ccc(C(CN(C)C)C2(O)CCCCC2)cc1 (stereo not drawn) in the same way.
Result block: Compound NOT metabolized

Query block: Consider next the molecule CN(C)CCOC(c1ccc(Cl)cc1)c1ccccn1.O=C(O)/C=C\C(=O)O (stereo not drawn) [CARBINOXAMINE MALEATE] in the same way.
Result block: Compound NOT metabolized

Query block: Consider next the molecule `C=CCN1CC[C@]23c4c5ccc(O)c4O[C@H]2C(=O)CC[C@@]3(O)[C@H]1C5` in the same way.
Result block: Compound metabolized

Query block: Consider next the molecule `CC(=O)Oc1ccc(C(c2ccc(OC(C)=O)cc2)c2ccccn2)cc1` in the same way.
Result block: Compound metabolized

Query block: Consider next the molecule COC(=O)C1=C(C)NC(C)=C(C(=O)OC(C)C)C1c1cccc2nonc12 (stereo not drawn) in the same way.
Result block: Compound NOT metabolized

* * *

Conditions: victivallis vadensis, 12 h, 2 µM
ENDPOINT LABEL: Bacterial Biotransformation

In the examples that follow, each entry is paired with its recorded Bacterial Biotransformation.
Query block: I am curious: what Bacterial Biotransformation value has been reported for `CC[C@@]1(O)C(=O)OCc2c1cc1n(c2=O)Cc2cc3c(CN(C)C)c(O)ccc3nc2-1` ?
Result block: Compound NOT metabolized

Query block: Consider next the molecule `CC[C@H](C)C(=O)O[C@H]1C[C@@H](C)C=C2C=C[C@H](C)[C@H](CC[C@@H]3C[C@@H](O)CC(=O)O3)[C@H]21` in the same way.
Result block: Compound NOT metabolized

Query block: Consider next the molecule `C[C@@H]1CC[C@H]2[C@@H](C)C(=O)O[C@@H]3O[C@@]4(C)CC[C@@H]1[C@]32OO4` in the same way.
Result block: Compound metabolized

Query block: Consider next the molecule `CNC(=C[N+](=O)[O-])NCCSCc1csc(CN(C)C)n1` in the same way.
Result block: Compound NOT metabolized

Query block: Consider next the molecule `CC[C@H](C)C(=O)O[C@H]1CCC=C2C=C[C@H](C)[C@H](CC[C@@H]3C[C@@H](O)CC(=O)O3)[C@H]21` in the same way.
Result block: Compound metabolized

Query block: Consider next the molecule `Nc1ccc(/N=N/c2ccccc2)c(N)n1` in the same way.
Result block: Compound metabolized

Others:
Query block: I am curious: what Bacterial Biotransformation value has been reported for `CCN(CC)C(=O)/C(C#N)=C/c1cc(O)c(O)c([N+](=O)[O-])c1` ?
Result block: Compound metabolized

Query block: Consider next the molecule O=c1[nH]c2ccccc2n1C1CCN(CCCC(c2ccc(F)cc2)c2ccc(F)cc2)CC1 [PIMOZIDE] in the same way.
Result block: Compound NOT metabolized

Query block: Consider next the molecule CC(CN(C)C)CN1c2ccccc2CCc2ccccc21.O=C(O)/C=C\C(=O)O (stereo unspecified) [TRIMIPRAMINE MALEATE] in the same way.
Result block: Compound NOT metabolized

Query block: Consider next the molecule COc1ccc(CCN(C)CCCC(C#N)(c2ccc(OC)c(OC)c2)C(C)C)cc1OC (stereo unspecified) in the same way.
Result block: Compound NOT metabolized

Query block: Consider next the molecule COc1ccc(C(CN(C)C)C2(O)CCCCC2)cc1 (stereo unspecified) in the same way.
Result block: Compound NOT metabolized

* * *

Assay: The drug is tested on Clostridium asparagiforme strain: DSM15981 for biotransformation. The drug concentrations were measured before and after a 12-h incubation by liquid-chromatography-coupled mass spectrometry (LC–MS)
Assay type: ADME
Design: dose 2 uM, timepoint 0 vs 12 hours
Conditions: enterocloster asparagiformis, 2 µM
ENDPOINT LABEL: Bacterial Biotransformation

Query block: I am curious: what Bacterial Biotransformation value has been reported for N#Cc1ccc2c(c1)N(CCCN1CCC(O)CC1)c1ccccc1S2 [PERICIAZINE] ?
Result block: Compound NOT metabolized

Query block: Consider next the compound CC(=O)OCC(=O)[C@@]12N=C(C)O[C@@H]1C[C@H]1[C@@H]3CCC4=CC(=O)C=C[C@]4(C)[C@H]3[C@@H](O)C[C@@]12C [DEFLAZACORT] in the same way.
Result block: Compound metabolized

Query block: Consider next the compound Cc1nc2n(c(=O)c1CCN1CCC(c3noc4cc(F)ccc34)CC1)CCCC2 [RISPERIDONE] in the same way.
Result block: Compound metabolized

Query block: Consider next the compound CC[C@H](C)C(=O)O[C@H]1CCC=C2C=C[C@H](C)[C@H](CC[C@@H]3C[C@@H](O)CC(=O)O3)[C@H]21 [MEVASTATIN] in the same way.
Result block: Compound metabolized

Query block: Consider next the compound CCCC1O[C@@H]2C[C@H]3[C@@H]4CCC5=CC(=O)C=C[C@]5(C)[C@H]4[C@@H](O)C[C@]3(C)[C@]2(C(=O)CO)O1 (stereo partly specified) [BUDESONIDE] in the same way.
Result block: Compound metabolized

Query block: Consider next the compound O=C1[C@H](CC[C@H](O)c2ccc(F)cc2)[C@@H](c2ccc(O)cc2)N1c1ccc(F)cc1 [EZETIMIBE] in the same way.
Result block: Compound NOT metabolized

Query block: Consider next the compound CN1[C@@H]2CC[C@H]1C[C@@H](OC(=O)c1c[nH]c3ccccc13)C2 [TROPISETRON] in the same way.
Result block: Compound NOT metabolized

Query block: Consider next the compound CC(C)OC(=O)C(C)(C)Oc1ccc(C(=O)c2ccc(Cl)cc2)cc1 [FENOFIBRATE] in the same way.
Result block: Compound metabolized

Others:
Query block: I am curious: what Bacterial Biotransformation value has been reported for CCOc1ccc2nc(S(N)(=O)=O)sc2c1 [ETHOXZOLAMIDE] ?
Result block: Compound metabolized

Query block: Consider next the compound CC(C)(C)NCC(O)COc1cccc2c1CC(O)C(O)C2 (stereo unspecified) [NADOLOL] in the same way.
Result block: Compound NOT metabolized

Query block: Consider next the compound CC(=O)OCC(=O)NCCCOc1cccc(CN2CCCCC2)c1 [ROXATIDINE ACETATE] in the same way.
Result block: Compound metabolized
